Origin of the recorded values: patent US20020137929A1

- Test system: AMBEL (Ragweed, Common)
- PROTOCOL_NOTES: Preemergence herbicidal evaluation
- Assay type: in vivo, Ambrosia artemisifolia
- MEASUREMENT_CONTEXT: rate 0.0313 kg/ha; rated 4-5 weeks after treatment; rating scale 0-9
ASSAY_ENDPOINT: Preemergence herbicidal rating AMBEL
Field format: numeric only.

{"columns": ["MOLECULE", "ASSAY_ENDPOINT", "RECORDED_MEASUREMENT"],
 "data": [
  ["Cn1c(C(F)(F)F)cc(=O)n(-c2cc(N=C3SCC(=O)N3Cc3ccncc3)c(Cl)cc2F)c1=O [Compound 133]", "Preemergence herbicidal rating AMBEL", 0.0],
  ["Cc1cc(C)cc(CN2C(=O)CSC2=Nc2cc(-n3c(=O)cc(C(F)(F)F)n(C)c3=O)c(F)cc2Cl)c1 [Compound 146]", "Preemergence herbicidal rating AMBEL", 0.0],
  ["Cn1c(C(F)(F)F)cc(=O)n(-c2cc(N=C3SCC(=O)N3Cc3ccc(C(F)(F)F)cc3)c(Cl)cc2F)c1=O [Compound 141]", "Preemergence herbicidal rating AMBEL", 0.0],
  ["C=C1SC(=Nc2cc(-n3c(=O)cc(C(F)(F)F)n(C)c3=O)c(F)cc2Cl)N(CC(=O)OCC)C1=O [Compound 154]", "Preemergence herbicidal rating AMBEL", 5.0]
]}

Which Preemergence herbicidal rating AMBEL value is on record for CN(C)c1ccc(CN2C(=O)CSC2=Nc2cc(-n3c(=O)cc(C(F)(F)F)n(C)c3=O)c(F)cc2Cl)cc1 [Compound 138] ? 0.0

###

- Tested on: AMBEL (Ragweed, Common)
- PROTOCOL_NOTES: Preemergence herbicidal evaluation
- Type: in vivo, Ambrosia artemisifolia
- MEASUREMENT_CONTEXT: rate 0.0313 kg/ha; rated 4-5 weeks after treatment
ASSAY_ENDPOINT: Preemergence herbicidal rating AMBEL
Field format: numeric only.

Some entries whose results are on file:
{"columns": ["COMPOUND", "Preemergence herbicidal rating AMBEL"],
 "data": [
  ["C=CCN1C(=O)C(CC(=O)OC)SC1=Nc1cc(-n2c(=O)cc(C(F)(F)F)n(C)c2=O)c(F)cc1Cl (stereo not drawn) [Compound 64]", 6.0],
  ["CCOC(=O)CN1C(=O)C(Cc2ccccc2OCC(=O)O)S/C1=N/c1cc(-n2c(=O)cc(C(F)(F)F)n(C)c2=O)c(F)cc1Cl (stereo not drawn) [Compound 113]", 0.0]
]}

Attention now shifts to the item below.
Which Preemergence herbicidal rating AMBEL value is on record for CC(C)S(=O)(=O)NC(=O)CC1SC(=Nc2cc(-n3c(=O)cc(C(F)(F)F)n(C)c3=O)c(F)cc2Cl)N(C)C1=O (stereo not drawn) [Compound 119] ? 0.0

###

- Test system: ABUTH (Velvetleaf)
- PROTOCOL_NOTES: Preemergence herbicidal evaluation
- Type: in vivo, Abutilon theophrasti
- MEASUREMENT_CONTEXT: rate 0.0313 kg/ha; rated 4-5 weeks after treatment
ASSAY_ENDPOINT: Preemergence herbicidal rating ABUTH
Field format: numeric only.

Some entries whose results are on file:
{"columns": ["COMPOUND", "ASSAY_ENDPOINT", "RECORDED_MEASUREMENT"],
 "data": [
  ["CCOC(=O)CN1C(=O)CN(C)C1=Nc1cc(-n2c(=O)cc(C(F)(F)F)n(C)c2=O)c(F)cc1Cl", "Preemergence herbicidal rating ABUTH", 9.0],
  ["CCOC(=O)CN1C(=O)C(CC(=O)Nc2ccccc2)SC1=Nc1cc(-n2c(=O)cc(C(F)(F)F)n(C)c2=O)c(F)cc1Cl (stereo not shown)", "Preemergence herbicidal rating ABUTH", 1.0],
  ["CC(C)OC(=O)CN1C(=O)CSC1=Nc1cc(-n2c(=O)cc(C(F)(F)F)n(C)c2=O)c(F)cc1Cl", "Preemergence herbicidal rating ABUTH", 9.0],
  ["C#CCOC(=O)CN1C(=O)CSC1=Nc1cc(-n2c(=O)cc(C(F)(F)F)n(C)c2=O)c(F)cc1Cl", "Preemergence herbicidal rating ABUTH", 0.0],
  ["Cn1c(C(F)(F)F)cc(=O)n(-c2cc(N=C3SCC(=O)N3CC(=O)OC(C)(C)C)c(Cl)cc2F)c1=O", "Preemergence herbicidal rating ABUTH", 9.0]
]}

Identify the measured Preemergence herbicidal rating ABUTH of `Cn1c(C(F)(F)F)cc(=O)n(-c2cc(N=C3NC(=O)CS3)c(Cl)cc2F)c1=O` for ABUTH (Velvetleaf). 0.0

Identify the measured Preemergence herbicidal rating ABUTH of C=CCOC(=O)CC1SC(=Nc2cc(-n3c(=O)cc(C(F)(F)F)n(C)c3=O)c(F)cc2Cl)N(CC=C)C1=O (stereo not shown) for ABUTH (Velvetleaf). 9.0

###

- Test system: CYPIR (Rice Flatsedge)
- PROTOCOL_NOTES: Postemergence weed control under flooded paddy conditions
- Assay type: in vivo, Cyperus iria
- MEASUREMENT_CONTEXT: Rate 0.2500 kg/ha, postemergence weeds, rated 3 to 4 weeks after treatment
- Source text: Results of herbicide evaluation are expressed on a rating scale (0-9). The scale is based upon a visual observation of plant stand, vigor, malformation, size, chlorosis and overall plant appearance as compared with a control. Plastic containers containing weeds which are 3 to 5 cm tall and rice seedlings at the 1.5 to 2.5 leaf stage are flooded with water. […] The compounds evaluated are reported by compound number given in Example 37.
ASSAY_ENDPOINT: Herbicidal rating CYPIR
Field format: numeric only.

{"columns": ["COMPOUND", "ASSAY_ENDPOINT", "RECORDED_MEASUREMENT"],
 "data": [
  ["C=CCN1C(=O)C(CC(=O)OC)SC1=Nc1cc(-n2c(=O)cc(C(F)(F)F)n(C)c2=O)c(F)cc1Cl (centres unmarked)", "Herbicidal rating CYPIR", 7.0],
  ["CN1C(=O)C(CC(=O)O)SC1=Nc1cc(-n2c(=O)cc(C(F)(F)F)n(C)c2=O)c(F)cc1Cl (centres unmarked)", "Herbicidal rating CYPIR", 7.0],
  ["C[C@H](C(=O)O)N1C(=O)CSC1=Nc1cc(-n2c(=O)cc(C(F)(F)F)n(C)c2=O)c(F)cc1Cl", "Herbicidal rating CYPIR", 2.0],
  ["CN1C(=O)C(CC(=O)OCCF)SC1=Nc1cc(-n2c(=O)cc(C(F)(F)F)n(C)c2=O)c(F)cc1Cl (centres unmarked)", "Herbicidal rating CYPIR", 0.0],
  ["CN1C(=O)C(CC(=O)NS(=O)(=O)c2ccccc2)SC1=Nc1cc(-n2c(=O)cc(C(F)(F)F)n(C)c2=O)c(F)cc1Cl (centres unmarked)", "Herbicidal rating CYPIR", 2.0],
  ["CCOC(=O)[C@H](Cc1ccccc1)N1C(=O)CSC1=Nc1cc(-n2c(=O)cc(C(F)(F)F)n(C)c2=O)c(F)cc1Cl", "Herbicidal rating CYPIR", 7.0],
  ["C#CCOC(=O)CC1SC(=Nc2cc(-n3c(=O)cc(C(F)(F)F)n(C)c3=O)c(F)cc2Cl)N(CC=C)C1=O (centres unmarked)", "Herbicidal rating CYPIR", 8.0]
]}

Which Herbicidal rating CYPIR value is on record for C=CCN1C(=O)C(CC(=O)NS(C)(=O)=O)SC1=Nc1cc(-n2c(=O)cc(C(F)(F)F)n(C)c2=O)c(F)cc1Cl (centres unmarked) ? 6.0

###

- Tested on: CYPSE (Flatsedge)
- PROTOCOL_NOTES: Postemergence weed control under flooded paddy conditions
- Format: in vivo, Cyperus serotinus
- MEASUREMENT_CONTEXT: rate 0.1250 kg/ha, postemergence weeds, 3-4 weeks after treatment
# maps each entry to its Herbicidal rating CYPSE
Field format: numeric only.

Some entries whose results are on file:
{"columns": ["MOLECULE", "MEASUREMENT_TARGET", "Herbicidal rating CYPSE"],
 "data": [
  ["CCOC(=O)CN1C(=O)CSC1=Nc1cc(-n2c(=O)cc(C(F)(F)F)n(C)c2=O)c(F)cc1Cl [Compound 8]", "CYPSE (Flatsedge)", 0.0],
  ["CN1C(=O)CS/C1=N/c1cc(-n2c(=O)cc(C(F)(F)F)n(C)c2=O)c(F)cc1Cl [Compound 7]", "CYPSE (Flatsedge)", 7.5],
  ["CCOC(=O)CN1C(=O)CS(=O)(=O)C1=Nc1cc(-n2c(=O)cc(C(F)(F)F)n(C)c2=O)c(F)cc1Cl [Compound 46]", "CYPSE (Flatsedge)", 0.0],
  ["CCOC(=O)CN1C(=O)C(Cc2ccccc2OC)SC1=Nc1cc(-n2c(=O)cc(C(F)(F)F)n(C)c2=O)c(F)cc1Cl (centres unmarked) [Compound 37]", "CYPSE (Flatsedge)", 0.0]
]}

Attention now shifts to the item below.
Which Herbicidal rating CYPSE value is on record for CCOC(=O)CN1CC(=O)N(CC(=O)OCC)C1=Nc1cc(-n2c(=O)cc(C(F)(F)F)n(C)c2=O)c(F)cc1Cl [Compound 34] ? 0.0
